Hey, just so you know, these numbers are from the supplement of paper PMC9732359.

assay comment: protein stability index of a GFP-peptide fusion (yeast GPS) (PSI 1-4); higher = more stable; sorted into four equal gates, so the index is relative within each strain
assay conditions: ubr1∆
readout name: protein stability index
Number, no unit, nothing else.

YPVRIPRLDTSKEFSAY [YJR042W/NUP85] :: 2.91
LSEYLTKFQTTDRESYP [YCS4] :: 2.94
SRGLFEKKLMQDNKQLY [YDL116W/NUP84] :: 2.93

Value lookup for protein stability index; key = KIMQEATQSGGVRPFGV [PRE8]
2.95

# get_value(readout='protein stability index', item= NVGKPDQSIASGNTNGA [YOR098C/NUP1] )
2.93

Please give the measured protein stability index for this sequence: GGLFGNSAQNNSTTSGG [YGR119C/NUP57]
3.06

Which protein stability index is listed for QRTAQDRVQQDSEDEDS [YML031W/NDC1] ?
2.91

What measured protein stability index goes with NTAAALVSLLDENDSKK [YAR002W/NUP60] ?
3.01

# query: protein stability index of entry RRRSSTNKSKRPSITEA [MED1]
3.04

Would you mind telling me what protein stability index value was observed for ASDGGLYVPHSENRFPG [RPL5] ?
2.92

----------
assay comment: protein stability index of a GFP-peptide fusion (yeast GPS) (PSI 1-4); higher = more stable; sorted into four equal gates, so the index is relative within each strain
assay conditions: doa10∆
Would you mind labelling by protein stability index? At or over 2 is class 1, under is class 0.

SGKLRDYQVQGLNWLIS [ISW2] :: class 1
YGYWFDCRMGNFYIQYD [AAR2] :: class 1
KDALSNSILSVRDPWSI [SRB2] :: class 1

Is the recorded value of protein stability index equal to or greater than 2 for this sequence? WEISNPDFLSKYSAITS [NUT1]
class 0

Is reported protein stability index greater than or equal to 2 here: KDKFNQIPLHRAASVGS [NAS6]
class 0

Has SLMSSQNKLFYITNADD [SIR3] a recorded protein stability index greater than or equal to 2?
class 1

Is it the case that GIKKHSLWRRTVYSLSQ [YDL116W/NUP84] has protein stability index reaching or exceeding 2?
class 0

----------
assay comment: protein stability index of a GFP-peptide fusion (yeast GPS) (PSI 1-4); higher = more stable; sorted into four equal gates, so the index is relative within each strain
assay conditions: pdr5∆
readout name: protein stability index
Please reply with the number alone, leaving off any unit.

See these solved cases before continuing.
AHFLSLSFTPTTVIGIR [RPN2] :: 1.56
SLYQVDPSGSYFPWKAT [PRE8] :: 2.66
LSESLTKFFDDAKSTPL [RPN9] :: 3.26
YQELFIQPKNSDDQQEA [YML103C/NUP188] :: 2.31

Proceeding to the next sequence to report its protein stability index.
Quick one: protein stability index for TTPVKLGPGIYCDPNTQ [RRP40] ?
2.2

----------
assay comment: protein stability index of a GFP-peptide fusion (yeast GPS) (PSI 1-4); higher = more stable; sorted into four equal gates, so the index is relative within each strain
assay conditions: doa10∆
Quick reference: protein stability index of the listed items.
Please reply with the value in numeric form only.

Solved cases below.
GFSMNNPYNIVPQGKIV [SMC3] :: 3.05
KAKSNQTQREKAPLQPN [IRR1] :: 3.07
TVNGQARDLATMTYEEV [FAS1] :: 2.96

Field request: protein stability index | item: HLGLDDPQDVFNYNIFM [SIR2]
2.99

// lookup protein stability index for NTSAKNKNGENKKIGKR [SIR4]
3.02

# query: protein stability index of entry NYDCKVISIVGGHSLEE [PRP28]
2.93

Sample IIVFGYPESISNELIEH [YDL088C/ASM4] — what was its protein stability index?
2.12

Sample IDESLFNLLILSLNKRI [YCG1] — what was its protein stability index?
2.75
